Values compiled from patent US20090252732A1.

- ASSAY_SYSTEM: T1, IL-31-CEE: purified, recombinant human IL-31 fused at the C-terminal with a peptide consisting of the … (human, UniProt Q6EBC2 24-164)
- T1 sequence: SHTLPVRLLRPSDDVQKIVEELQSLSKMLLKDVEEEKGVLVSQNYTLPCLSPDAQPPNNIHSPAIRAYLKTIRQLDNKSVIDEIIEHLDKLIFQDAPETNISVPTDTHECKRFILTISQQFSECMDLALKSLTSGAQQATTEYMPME
- ASSAY_PROTOCOL: cell-based or functional assay
OBSERVATION_TYPE: IC50 (ng/mL), cell-based neutralization (luciferase), IL-31-CEE at 300 pg/mL
Quick note: give the figure in ng/mL, leave out the unit.

Before answering, review these 2 worked examples.
# get_value(readout='IC50 (ng/mL), cell-based neutralization (luciferase), IL-31-CEE at 300 pg/mL', item= mouse anti-human IL-31 mAb from clone 292.72.3.1 (ATCC Patent Deposit Designation PTA-6816) (antibody, mouse IgG2a, V domains shown, Mouse IgG2a; assays used first round clone 292.72.3) VH: QVQVQQSGAELARPGASVKLSCKASGYTLTRYWMQWVKQRPGQGLEWIGAIYPRDGDTRYSQKFKGKATLTADKSSTTAYMQLSSLASEDSAVYYCAYPDGSYAAPNGMEYWGQGSSVTVSS VL: DIQMSQSPASLSASVGETVTITCRASGSIHNYLAWYQQKQGKSPQLLVYNAETLADGVPSRFSGSGSGTQYSLKISSLQPEDFGTYYCQHFWITPWTFGGGTKLEIK )
2

Lookup mouse anti-human IL-31 mAb from clone 292.118.6.4 (ATCC Patent Deposit Designation PTA-6830) (antibody, mouse IgG1, V domains shown, Mouse IgG1; assays used first round clone 292.118.6) VH: EVQLVESGGGLVKPGGSLKLSCAVSGFTFKTYIMSWVRQSPEKRLEWVATINSGGYYTIYPDSVKGRFTISRDNAKNTLYLQMSSLRSEDTAMYYCARQEGWSSAWFAYWGQGTLVTVSA VL: DIVMTQSPSSLAMSVGQKVTMICNSSQSLLNSSNQKNYLAWYQQRPGQSPRLLVYFASTGESGVPDRFMGSGSGTDFTLTISNVQAEDLADYFCQQHFSTPYTFGGGTKLEIR
6.55

As a next step, examine the binder that follows.
Consider the binder mouse anti-human IL-31 mAb from clone 292.51.5.2 (antibody, mouse IgG1, V domains shown, Mouse IgG1; assays used first round clone 292.51.5) VH: EVQLVESGGDLVKPGGSLKLSCAASGFTFSSFVMSWVRQSPEKRLEWVATINSGGYYSFHPDSVKGRFTISRDNAKNTLYLQMSSLRSEDTAIYYCARQEGWSSAYFSYWGQGTLVTVSA VL: DIVMTQSPSSLAMSVGQKVTMICKSSQSLLNSSNQKNYLAWYQQKPGHSPKLLVSFTSTRESGVPDRFIGSGSGTDFTLTITNMQAEDLADYFCQQHYDTPYTFGGGTKLEIR and give its measured IC50 (ng/mL), cell-based neutralization (luciferase), IL-31-CEE at 300 pg/mL.
6.48
